The measurements presented in this section are drawn from patent US20130150354A1.

- systemTested: human CCR5 (Homo sapiens, UniProt P51681)
- Construct: expressed in transfected cells; host or cells: CHO cells co-expressing Gα16, grown under puromycin and zeocin selection; membrane preparation
- Sequence (P51681 whole entry): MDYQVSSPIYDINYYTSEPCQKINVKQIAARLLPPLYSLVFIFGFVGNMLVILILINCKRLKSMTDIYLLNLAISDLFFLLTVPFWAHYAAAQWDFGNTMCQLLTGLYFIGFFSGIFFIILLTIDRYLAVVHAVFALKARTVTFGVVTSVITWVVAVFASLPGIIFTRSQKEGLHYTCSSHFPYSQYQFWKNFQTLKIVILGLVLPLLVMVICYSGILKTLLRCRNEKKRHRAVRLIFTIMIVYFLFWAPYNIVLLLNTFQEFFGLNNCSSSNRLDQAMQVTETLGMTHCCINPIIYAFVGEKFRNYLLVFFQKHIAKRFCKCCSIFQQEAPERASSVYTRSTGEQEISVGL
- assayName: CCR5 receptor membrane binding assay (CHO (Gα16) human CCR5 membranes, [125I]RANTES, SPA beads)
- assayContext: 6 h, read-out: hKi [nM] (CCR5)
Kindly apply the following: class 1 if Ki is less than 500 nM, class 0 in every other case.

# compound, labelValue
measured = [
    ("Cc1c(NC[C@H]2CCC[C@@H](c3ccc(C(F)(F)F)cc3)O2)ncnc1C(=O)N1CCC(N2C[C@H]3C[C@@H](N(C)S(C)(=O)=O)C[C@H]3C2)CC1 [Example 9]", "class 1"),
    ("COc1nc(Nc2ccc(Cl)c(Cl)c2)c(C)c(C(=O)N2CCC(N3CCO[C@@H]4COCC[C@@H]43)CC2)n1 (single isomer, unassigned) [Example 37b]", "class 0"),
    ("Cc1c(Nc2ccc(Cl)c(Cl)c2)ncnc1C(=O)N1CCC(N2CC3COCC3C2)CC1 (stereo not drawn) [Example 18]", "class 0"),
    ("COc1nc(Nc2cccc(C(F)(F)F)c2)c(C)c(C(=O)N2CCC(N3CCO[C@H]4COCC[C@H]43)CC2)n1 (single isomer, unassigned) [Example 36a]", "class 0"),
    ("Cc1c(NC[C@H]2CCC[C@@H](c3ccccc3)C2)ncnc1C(=O)N1CCC(N2C[C@H]3C[C@@H](N(C)S(C)(=O)=O)C[C@H]3C2)CC1 [Example 11]", "class 1"),
    ("Cc1c(Nc2cccc(C(F)(F)F)c2)nc(C2CC2)nc1C(=O)N1CCC(N2CCO[C@H]3COCC[C@H]32)CC1 (single isomer, unassigned) [Example 39a]", "class 1"),
    ("Cc1c(NC[C@H]2CCC[C@@H](c3ccc(C(F)(F)F)cc3)O2)ncnc1C(=O)N1CCC(N2CC3CN(S(C)(=O)=O)CC3C2)CC1 (stereo partly drawn) [Example 12]", "class 1"),
    ("Cc1c(NC[C@H]2CCC[C@@H](c3ccc(C(F)(F)F)cc3)O2)ncnc1C(=O)N1CCC(N2CCO[C@H]3COCC[C@H]32)CC1 [Example 2]", "class 1"),
]

Prompt: Dear reviewer, please state whether Cc1c(C(=O)N2CCC(N3CCO[C@H]4COCC[C@H]43)CC2)ncnc1N1CCc2ccc(C(F)(F)F)cc2C1 [Example 3] has Ki strictly beneath 500 nM.
Completion: class 0

Prompt: Again, but for Cc1c(NC[C@H]2CCC[C@@H](c3ccc(C(F)(F)F)cc3)O2)ncnc1C(=O)N1CCC(N2CCO[C@@H]3COCC[C@@H]32)CC1 [Example 1]
Completion: class 0

Prompt: Again, but for COc1nc(Nc2ccc(Cl)c(Cl)c2)c(C)c(C(=O)N2CCC(N3CCO[C@H]4COCC[C@H]43)CC2)n1 [Example 28]
Completion: class 1

Prompt: Again, but for Cc1c(NC[C@H]2CCC[C@@H](c3ccccc3)C2)ncnc1C(=O)N1CCC(N2CC3COCC3C2)CC1 (stereo partly drawn) [Example 44]
Completion: class 1

---

- systemTested: human CCR5 (Homo sapiens, UniProt P51681)
- Construct: expressed in transfected cells; host or cells: CHO cells co-expressing Gα16, grown under puromycin and zeocin selection; membrane preparation
- assayName: CCR5 receptor membrane binding assay (CHO (Gα16) human CCR5 membranes, [125I]RANTES, SPA beads)
- assayContext: 6 h, read-out: hKi [nM] (CCR5)
metric: log10(Ki) (log10 of the value in nM)
Field: value | Transform: log10 | Quantity: Ki | Unit: nM

Answered cases to consult:
# molecule, metric, observedResult
records = [
    ("Cc1c(Nc2ccc(Cl)c(Cl)c2)ncnc1C(=O)N1CCC(N2CC3CN(S(C)(=O)=O)CC3C2)CC1 (stereo not shown)", "log10(Ki)", 2.60),
    ("Cc1c(Nc2cccc(C(F)(F)F)c2)ncnc1C(=O)N1CCC(N2CCO[C@H]3COCC[C@H]32)CC1", "log10(Ki)", 3.16),
    ("Cc1c(NC[C@H]2CCC[C@@H](c3ccccc3)C2)ncnc1C(=O)N1CCC(N2CC3CN(S(C)(=O)=O)CC3C2)CC1 (stereo partly shown)", "log10(Ki)", 1.63),
    ("Cc1c(NC[C@H]2CCC[C@@H](c3ccc(OC(F)(F)F)cc3)O2)ncnc1C(=O)N1CCC(N2C[C@H]3C[C@@H](N(C)S(C)(=O)=O)C[C@H]3C2)CC1", "log10(Ki)", 0.95),
    ("Cc1ccc2c(c1)CN(c1nc(C)nc(C(=O)N3CCC(N4CCO[C@H]5COCC[C@H]54)CC3)c1C)CC2", "log10(Ki)", 3.85),
    ("Cc1c(Nc2ccc(Cl)c(Cl)c2)ncnc1C(=O)N1CCC(N2CCO[C@H]3COCC[C@H]32)CC1 [Example 4]", "log10(Ki)", 2.73),
]

As a next step, examine the molecule that follows.
Prompt: Item Cc1ccc([C@@H]2CCC[C@H](CNc3ncnc(C(=O)N4CCC(N5CCOC6COCCC65)CC4)c3C)O2)cc1 (stereo partly shown) with human CCR5 (Homo sapiens, UniProt P51681) - log10(Ki)?
Completion: 3.07
